The entries below come with measured pIC50 values attached.
# assay system: c-Kit(V654A) (Homo sapiens, UniProt P10721, V654A)
# Construct: recombinant human c-Kit, amino acids 544-end containing the V654A mutation; GST (N)
# Sequence (P10721 544-976 V654A): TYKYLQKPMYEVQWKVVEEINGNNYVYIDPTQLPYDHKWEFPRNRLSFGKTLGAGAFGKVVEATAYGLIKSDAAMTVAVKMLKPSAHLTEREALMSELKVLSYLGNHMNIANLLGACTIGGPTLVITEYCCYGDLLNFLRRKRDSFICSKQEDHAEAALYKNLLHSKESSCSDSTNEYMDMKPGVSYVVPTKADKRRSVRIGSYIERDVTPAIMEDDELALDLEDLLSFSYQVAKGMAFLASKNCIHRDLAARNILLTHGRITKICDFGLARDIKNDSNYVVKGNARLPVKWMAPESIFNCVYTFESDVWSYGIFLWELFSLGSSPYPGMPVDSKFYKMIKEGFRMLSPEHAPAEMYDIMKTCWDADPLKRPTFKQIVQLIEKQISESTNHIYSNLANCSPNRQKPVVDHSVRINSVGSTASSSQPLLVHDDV
# assay name: c-Kit(V654A) assay (33P-ATP filter binding kinase assay)
# Assay type: biochemical
# test settings: recombinant human c-Kit aa 544-end V654A, ATP 200 μM
pIC50: −log10 of the molar value.

[
  {
    "molecule": "Cn1cc(-c2ccc(CNc3cc(-c4cnc5cc(OCC6CN(CC(F)(F)F)C6)ccn45)ncn3)cc2)cn1",
    "pIC50": 7.62
  },
  {
    "molecule": "Cn1cc(-c2ccc(CNc3cc(-c4cnc5cc(OCCS(C)(=O)=O)ccn45)ncn3)cc2)cn1",
    "pIC50": 8.19
  },
  {
    "molecule": "CN1CC2(CN(CCOc3ccn4c(-c5cc(NCc6ccc(-c7cnn(C)c7)cc6)ncn5)cnc4c3)C2)OC1=O",
    "pIC50": 7.68
  },
  {
    "molecule": "COc1ccn2c(-c3cc(NCc4cccc(-c5cnn(C)c5)c4)ncn3)cnc2c1",
    "pIC50": 7.46
  },
  {
    "molecule": "Cn1cc(-c2ccc(CNc3cc(-c4cnc5cc(OCCN6CCOCC6)ccn45)ncn3)cc2)cn1",
    "pIC50": 8.14
  },
  {
    "molecule": "Cn1cc(-c2ccc(CNc3cc(-c4cnc5cc(OCCC(C)(C)N)ccn45)ncn3)cc2)cn1",
    "pIC50": 7.96
  },
  {
    "molecule": "Cn1cc(-c2ccc(COc3cc(-c4cnc5cc(OCCN6CCC(F)(F)C6)ccn45)ncn3)cc2)cn1",
    "pIC50": 8.00
  },
  {
    "molecule": "CN1CCOC[C@H]1COc1ccn2c(-c3cc(NCc4ccc(-c5cnn(C)c5)cc4)ncn3)cnc2c1",
    "pIC50": 7.64
  },
  {
    "molecule": "COCC(COC)Oc1ccn2c(-c3cc(NCc4ccc(-c5cnn(C)c5)cc4)ncn3)cnc2c1",
    "pIC50": 6.92
  },
  {
    "molecule": "Cn1ncc(-c2ccc(CNc3cc(-c4cnc5cc(OCCN6CC7CC7C6)ccn45)ncn3)cc2)n1 (centres unmarked)",
    "pIC50": 8.00
  },
  {
    "molecule": "CN1CCC(CCOc2ccn3c(-c4cc(NCc5ccc(-c6cnn(C)n6)cc5)ncn4)cnc3c2)CC1",
    "pIC50": 8.46
  },
  {
    "molecule": "Cn1ncc(-c2ccc(CNc3cc(-c4cnc5cc(OCC6CCN(CC#N)CC6)ccn45)ncn3)cc2)n1",
    "pIC50": 8.01
  },
  {
    "molecule": "c1ccn2c(-c3cc(NCc4ccc(-n5ccnc5)cc4)ncn3)cnc2c1",
    "pIC50": 7.64
  },
  {
    "molecule": "COCCN1CCC(COc2ccn3c(-c4cc(NCc5ccc(-c6cnn(C)n6)cc5)ncn4)cnc3c2)CC1",
    "pIC50": 8.66
  },
  {
    "molecule": "Cn1ncc(-c2ccc(CNc3cc(-c4cnc5cc(OCCC6CCN(C7COC7)C6)ccn45)ncn3)cc2)n1 (centres unmarked)",
    "pIC50": 8.47
  },
  {
    "molecule": "Cn1cc(-c2ccc(CNc3cc(-c4cnc5cc(OCCN6CCC67COC7)ccn45)ncn3)cc2)cn1",
    "pIC50": 8.06
  },
  {
    "molecule": "Cn1cc(-c2ccc(CNc3cc(-c4cnc5cc(OCCN6CCO[C@@H]7COCC[C@@H]76)ccn45)ncn3)cc2)cn1",
    "pIC50": 8.00
  }
]
